Test system: kiaa1001
Experiment: Real-time quantitative PCR of PLsis marker gene expression
Assay type: cell-based, human
Conditions: HepG2 cells, 24 hr exposure, relative value, control group = 1.0, GAPDH internal standard, n=3
observable: expression variation rate kiaa1001

The cases that follow already have their expression variation rate kiaa1001 on record.
CCCCc1oc2ccccc2c1C(=O)c1cc(I)c(OCCN(CC)CC)c(I)c1 ... 1.56
CC(=O)N1CCN(c2ccc(OCC3COC(Cn4ccnc4)(c4ccc(Cl)cc4Cl)O3)cc2)CC1 (stereo not drawn) ... 2.24
CNCCC(Oc1ccc(C(F)(F)F)cc1)c1ccccc1 (stereo not drawn) ... 1.93
C1CCC(C(CC2CCCCN2)C2CCCCC2)CC1 (stereo not drawn) ... 1.98
CC[C@H]1OC(=O)[C@H](C)[C@@H](O[C@H]2C[C@@](C)(OC)[C@@H](O)[C@H](C)O2)[C@H](C)[C@@H](O[C@@H]2O[C@H](C)C[C@H](N(C)C)[C@H]2O)[C@](C)(OC)C[C@@H](C)C(=O)[C@H](C)[C@@H](O)[C@]1(C)O ... 1.48
CC(C)NCC(O)c1ccc(NS(C)(=O)=O)cc1 (stereo not drawn) ... 0.84
N=C(N)c1ccc(OCCCCCOc2ccc(C(=N)N)cc2)cc1 ... 1.82
CC1COc2c(N3CCN(C)CC3)c(F)cc3c(=O)c(C(=O)O)cn1c23 (stereo not drawn) ... 0.86
Clc1ccccc1CNCC1CCC(CNCc2ccccc2Cl)CC1 (stereo not drawn) ... 1.68
CC(C)N(CCC(C(N)=O)(c1ccccc1)c1ccccn1)C(C)C (stereo not drawn) [disopyramide] ... 0.94

[a] CCN(CC)CCNC(=O)c1ccc(N)cc1 [procainamide]
[b] CC(=O)Nc1ccc(O)cc1
[c] CSc1ccc2c(c1)N(CCC1CCCCN1C)c1ccccc1S2 (stereo not drawn)
[d] C[C@H]1COc2c(N3CCN(C)CC3)c(F)cc3c(=O)c(C(=O)O)cn1c23
Lookup: Order the 4 compounds from highest to lowest expression variation rate kiaa1001. Give the order by naming the labels one after another as requested.
Found: c, a, b, d
(c: 5.79, a: 1.78, b: 1.13, d: 0.70)

[1] O=C(NCC1CCCCN1)c1cc(OCC(F)(F)F)ccc1OCC(F)(F)F (stereo not drawn) [flecainide]
[2] O=C(CCCN1CCC(O)(c2ccc(Cl)cc2)CC1)c1ccc(F)cc1
Lookup: Task for the reader: decide whether 1 or 2 has the larger expression variation rate kiaa1001. Indicate which entry you chose by stating its label.
Found: 1

[I] CNS(=O)(=O)Cc1ccc2[nH]cc(CCN(C)C)c2c1
[II] CN(C)CCC=C1c2ccccc2CCc2ccccc21
Lookup: Hey, between I and II which has a smaller measured expression variation rate kiaa1001? In your reply, give the label of the chosen option.
Found: I

====

Tested on: nr0b2
Assay: Real-time quantitative PCR of PLsis marker gene expression
Type: cell-based, human
Conditions: HepG2 cells, 24 hr exposure, relative value, control group = 1.0, GAPDH internal standard, n=3
observable: expression variation rate nr0b2

CN(C)CCC=C1c2ccccc2CCc2ccccc21 ... 1.64

[P] Cc1cc(NS(=O)(=O)c2ccc(N)cc2)no1
[Q] CCCCc1oc2ccccc2c1C(=O)c1cc(I)c(OCCN(CC)CC)c(I)c1
[R] CN1CCN(C(c2ccccc2)c2ccc(Cl)cc2)CC1 (stereo not drawn)
Lookup: hey, can you rank those compounds up there by expression variation rate nr0b2? biggest number first please Respond with an ordered listing of the labels, as requested.
Found: R, Q, P
(R: 2.46, Q: 1.35, P: 0.82)

[1] CSc1ccc2c(c1)N(CCC1CCCCN1C)c1ccccc1S2 (stereo not drawn)
[2] CN[C@H]1CC[C@@H](c2ccc(Cl)c(Cl)c2)c2ccccc21
Lookup: Short answer wanted: higher expression variation rate nr0b2, 1 or 2 ? Which one? Tell me its label.
Found: 2

[A] CN(C)CCCN1c2ccccc2Sc2ccc(Cl)cc21
[B] CNS(=O)(=O)Cc1ccc2[nH]cc(CCN(C)C)c2c1
Lookup: Hi! Which is lower in terms of expression variation rate nr0b2, the first one A or the second one B ? Your choice should be expressed through its label.
Found: B

[P] CC(C)N(CCC(C(N)=O)(c1ccccc1)c1ccccn1)C(C)C (stereo not drawn) [disopyramide]
[Q] CN(C)CCCN1c2ccccc2CCc2ccc(Cl)cc21
[R] O=C(CCCN1CCC(O)(c2ccc(Cl)cc2)CC1)c1ccc(F)cc1
[S] CC(=O)N1CCN(c2ccc(OCC3COC(Cn4ccnc4)(c4ccc(Cl)cc4Cl)O3)cc2)CC1 (stereo not drawn)
Lookup: Please list these in order of increasing expression variation rate nr0b2. Thank you! List the labels in the requested order.
Found: P, Q, R, S

[a] O=C(NCC1CCCCN1)c1cc(OCC(F)(F)F)ccc1OCC(F)(F)F (stereo not drawn) [flecainide]
[b] CC(C)NCC(O)c1ccc(NS(C)(=O)=O)cc1 (stereo not drawn)
Lookup: Could you check which of a and b has a smaller value for expression variation rate nr0b2? Please respond with the label that marks your chosen entry.
Found: b

[P] CCN(CC)CCNC(=O)c1ccc(N)cc1 [procainamide]
[Q] N=C(N)c1ccc(OCCCCCOc2ccc(C(=N)N)cc2)cc1
Lookup: Which value of expression variation rate nr0b2 is greater, the one for P or the one for Q ? The response must carry the label of the picked entry.
Found: Q
